# TARGET_OR_SYSTEM: Tubulin (Homo sapiens) (UniProt P68371+Q9H4B7+P0DPH7+P68366+Q13509+Q71U36+P04350+Q3ZCM7+P07437+P68363+Q9BQE3+Q6PEY2+Q13885+Q9BVA1+Q9BUF5)
# ASSAY_EXPLANATION: Stabilization of microtubules in human QBI293 cells assessed as fold change in acetylated tubulin levels at 10 uM after 4 hrs by ELISA relative to DMSO
# Type: cell-based
# fold change (FC) annotations
Write no unit; give the number alone.

The cases that follow already have their fold change (FC) on record.
MOLECULE	NUMBER
CC(Cc1c(-c2c(F)cc(F)cc2F)c(Cl)nc2ncnn12)C(F)(F)F (stereo not given)	2.29
C[C@H](Nc1c(-c2ccc(F)c(F)c2F)c(Cl)nc2ncnn12)C(F)(F)F	4.28
CC(C)[C@@H](C)Nc1c(-c2c(F)cccc2F)c(Cl)nc2ncnn12	4.88
CC(C)[C@@H](C)Nc1c(-c2c(F)cc(C#N)cc2F)c(Cl)nc2ncnn12	4.28

Here is the next item to consider.
// lookup fold change (FC) for Fc1cc(F)c(-c2c(Cl)nc3ncnn3c2NC2CCCC2)c(F)c1
4.83

# credit: ChEMBL document CHEMBL4732138
